Recorded Ratio IC50 values for a group of compounds are listed next.
- System: HCT-116
- Measurement notes: Selectivity ratio of IC50 for human CCL186 cells to IC50 for human HCT116 cells
- Format: functional
When you answer, write just the number.

Q. Form field - read-out: Ratio IC50; system: HCT-116; submitted item: COc1cc(OC)c(N2CCC(N3CCCCC3)CC2)cc1C(=O)/C=C/c1ccccc1F
A. 0.4

Q. Subsequent entry: COc1cc(OC)c(C2CCN(C)CC2)c(O)c1C(=O)/C=C/c1ccccc1Cl
A. 1

Q. Subsequent entry: O=C(/C=C/c1ccc(Cl)cc1)c1ccc(N2CCNCC2)cc1
A. 2.3

Further cases:
Q. Form field - read-out: Ratio IC50; system: HCT-116; submitted item: O=C(/C=C/c1ccccc1)c1ccc(N2CCNCC2)cc1
A. 1

Q. Subsequent entry: O=C(/C=C/c1ccccc1Cl)c1ccc(N2CCNCC2)cc1
A. 2.5

Q. Subsequent entry: COc1ccc(C(=O)/C=C/c2ccccc2)c(OC)c1
A. 3.1

Q. Subsequent entry: COc1ccc(C(=O)/C=C/c2ccncc2)c(OC)c1
A. 1.7

Q. Subsequent entry: COc1cc(O)c(C(=O)/C=C/c2ccccc2OC)cc1C
A. 0.2

Q. Subsequent entry: COc1cc(O)c(C(=O)/C=C/c2ccccc2)cc1C
A. 0.5

Q. Subsequent entry: CN1CCC(c2ccc(O)c(C(=O)/C=C/c3ccccc3Cl)c2)CC1
A. 2.2

Q. Subsequent entry: COc1cc(OC)c(C2CCN(C)CC2)c(O)c1C(=O)/C=C/c1ccccc1C
A. 0.6

Q. Subsequent entry: COc1ccc(/C=C/C(=O)c2c(OC)cc(OC)c(C3CCN(C)CC3)c2O)c(OC)c1
A. 0.7

Q. Subsequent entry: CCN1CCC(c2cc(C(=O)/C=C/c3ccccc3Cl)c(OC)cc2OC)CC1
A. 1.5

Q. Subsequent entry: O=C(/C=C/c1ccc(Cl)cc1)c1ccc(N2CCCCC2)cc1
A. 1

Q. Subsequent entry: COc1cc(OC)c(C2CCN(C)CC2)c(O)c1C(=O)/C=C/c1ccc(Cl)cc1
A. 2.4

Q. Subsequent entry: COc1ccccc1/C=C/C(=O)c1c(OC)cc(OC)c(C2CCN(C)CC2)c1O
A. 0.7

Q. Subsequent entry: COc1cc(OC)c(N2CCN(C)CC2)cc1C(=O)/C=C/c1ccccc1F
A. 1

Q. Subsequent entry: COc1cc(OC)c(C2CCN(C)CC2)c(O)c1C(=O)/C=C/c1ccc(N2CCN(C)CC2)cc1
A. 0.7

Q. Subsequent entry: COc1cc(OC)c(C2CCN(C)CC2)cc1C(=O)/C=C/c1ccncc1
A. 1.4

Q. Subsequent entry: COc1cc(OC)c(C2CCN(C)CC2)c(O)c1C(=O)/C=C/c1ccc(N(C)C)cc1
A. 0.3

Q. Subsequent entry: COc1cc(OC)c(C2CCN(C)CC2)c(O)c1C(=O)/C=C/c1cccc(Cl)c1
A. 0.3

Q. Subsequent entry: COc1cc(OC)c(C2CCN(C)CC2)cc1C(=O)/C=C/c1ccccc1C
A. 1

Q. Subsequent entry: COc1cc(OC)c(N2CCN(C)CC2)cc1C(=O)/C=C/c1ccncc1
A. 0.9

Q. Subsequent entry: COc1cc(O)c(C(=O)/C=C/c2ccccc2Cl)cc1C
A. 0.4

Q. Subsequent entry: COc1cc(OC)c(C2CCN(C)CC2)cc1C(=O)/C=C/c1ccccc1
A. 2

Q. Subsequent entry: CCN1CCC(c2cc(C(=O)/C=C/c3ccc(N4CCN(C)CC4)cc3)c(OC)cc2OC)CC1
A. 2

Q. Subsequent entry: COc1ccc(C(=O)/C=C/c2ccc(N3CCN(C)CC3)cc2)c(OC)c1
A. 2.6

Q. Subsequent entry: COc1cc(OC)c(N2CCC(N3CCCCC3)CC2)cc1C(=O)/C=C/c1ccccc1Cl
A. 0.3
